Attribution: the supplement of paper PMC10724198

Catalogue of protein stability index values
# Test system: Saccharomyces cerevisiae;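 note: PSI is a weighted mean of each variant's read distribution over the sorted stability bins, computed only for variants having over 10 reads in total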
# assay_notes: protein stability index of tFT-peptide fusion in deletion strain of DAS1 (PSI (0-1 scale)); higher = more stable (slower turnover)
Lab note: jot down the number only; don't add units.

Answered cases to consult:
1) PDKRYHLIKLLN 0.597
2) ELIQPLPVQFLN 0.612
3) FSNRWTFRYWVN 0.617
4) RLIQPLPVQFLS 0.606
5) VRGAKGGWRLVG 0.67
6) IVVYLSCVACIN 0.0302
7) ARWRVGLWRGAR 0.666
8) LVVYLPCVACIN 0.202
9) APWRVGLWRGAS 0.701
10) PDKRNHLIGLLN 0.609

IN: Please give measured protein stability index of the following entry: `MLIQPLPVQFLN`
OUT: 0.654

IN: Respond only with protein stability index recorded for `FSMRWTFRYVVN`
OUT: 0.496

IN: Give me measured protein stability index, please, for this sequence: `RLIQPLPNQFLN`
OUT: 0.703
